# Test system: root meristem cells of Allium cepa
# Experimental Protocol: In vitro antimitotic activity and cytogenetic analysis, Allium cepa meristem root model
# Type: cell-based
# Measurement Setup: compounds 1 mg/mL, PC (EMS) 2 × 10^−2 M
Measured Metric: Polar deviations (%) ± SEM

* CN(C)c1ccc(C=Nc2nnc(S(=O)(=O)NC(=O)c3ccccc3)s2)cc1 | 8.91
* COc1ccc(C=Nc2nnc(S(=O)(=O)NC(=O)c3ccccc3)s2)cc1 | 9.15
* CCOS(C)(=O)=O [PC, Ethyl methanesulphonate, reference compound] | 12.36
* COc1ccccc1C=Nc1nnc(S(=O)(=O)NC(=O)c2ccccc2)s1 | 7.22
* O=C(NS(=O)(=O)c1nnc(N=Cc2ccccc2)s1)c1ccccc1 | 8.62
* O=C(NS(=O)(=O)c1nnc(N=Cc2ccc(Cl)cc2)s1)c1ccccc1 | 7.32
* COc1cc(C=Nc2nnc(S(=O)(=O)NC(=O)c3ccccc3)s2)ccc1O | 10.26
